- System: rat hepatoma cells
- procedureDetails: Cholesterol Esterification Assay (esterification of plasma membrane cholesterol)
- Type: cell-based
- testSettings: 10 µM, read-out: Percent Inhibition (incorporation of label into cholesteryl ester*) ^3H-Cholesterol
- Excerpt: Table 1. […] Table 1. Effects of synthetic and plant-derived compounds on cholesterol homeostasis. […]
reportedEndpoint: inhibition at 10 µM

Worked examples, 3 compounds total:
CC1=C2C(=O)[C@H]3[C@@H](CC=C4C[C@@H](O)CC[C@@]43C)[C@@H]2CC[C@]12O[C@@H]1C[C@H](C)CN[C@H]1[C@H]2C: 50%
C[C@H]1CC[C@]2(NC1)O[C@H]1C[C@H]3[C@@H]4CC[C@H]5C[C@@H](O)CC[C@]5(C)[C@H]4CC[C@]3(C)[C@H]1[C@@H]2C: 39%
CCN(CC)CCOc1ccc(C(O)(Cc2ccc(Cl)cc2)c2ccc(C)cc2)cc1 (stereo not shown): 79%

From here, focus on the item given below.
Tell me its inhibition at 10 µM on rat hepatoma cells: "Clc1ccccc1CNC[C@H]1CC[C@H](CNCc2ccccc2Cl)CC1"
68%

----------
- System: rat hepatoma cells
- procedureDetails: Cholesterol Esterification Assay (esterification of plasma membrane cholesterol)
- Format: cell-based
- testSettings: 5.0 µM, read-out: Percent Inhibition (incorporation of label into cholesteryl ester*) ^3H-Cholesterol
For each record, write down the corresponding inhibition at 5 µM.
Give bare numbers, in %.

Would you mind giving inhibition at 5 µM for every molecule in the list below?
1. Clc1ccccc1CNC[C@H]1CC[C@H](CNCc2ccccc2Cl)CC1
2. CCN(CC)CCOc1ccc(C(O)(Cc2ccc(Cl)cc2)c2ccc(C)cc2)cc1 (stereo not shown)
3. C[C@H]1CC[C@]2(NC1)O[C@H]1C[C@H]3[C@@H]4CC[C@H]5C[C@@H](O)CC[C@]5(C)[C@H]4CC[C@]3(C)[C@H]1[C@@H]2C
4. CC1=C2C(=O)[C@H]3[C@@H](CC=C4C[C@@H](O)CC[C@@]43C)[C@@H]2CC[C@]12O[C@@H]1C[C@H](C)CN[C@H]1[C@H]2C

1. 56
2. 57
3. 33
4. 44
